Target: Farnesyl pyrophosphate synthase (Homo sapiens) (UniProt P14324)
Sequence (P14324 whole entry): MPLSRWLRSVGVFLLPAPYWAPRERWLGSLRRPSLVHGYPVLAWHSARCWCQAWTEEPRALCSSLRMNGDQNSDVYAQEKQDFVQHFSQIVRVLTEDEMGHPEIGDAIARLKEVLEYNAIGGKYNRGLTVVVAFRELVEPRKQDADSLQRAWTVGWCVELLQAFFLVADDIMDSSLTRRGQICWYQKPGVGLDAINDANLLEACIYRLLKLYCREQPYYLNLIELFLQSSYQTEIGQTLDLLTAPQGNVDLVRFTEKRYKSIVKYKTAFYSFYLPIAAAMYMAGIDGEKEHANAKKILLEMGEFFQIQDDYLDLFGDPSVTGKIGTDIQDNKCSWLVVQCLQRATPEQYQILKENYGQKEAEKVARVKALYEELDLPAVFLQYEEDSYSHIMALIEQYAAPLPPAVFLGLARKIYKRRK
Experiment: Inhibition of human FPPS at 10 uM
The source made the active and inactive calls. The calls are words filed in the database; no cut-off is given here.
Hello, when you answer, please use one of the following outcomes: t = active, f = inactive

Problem: Test call, this compound: Cn1cc(CC(P(=O)(O)O)P(=O)(O)O)c2ccccc21
Solution: t

Problem: Fill in: this test's call for Cn1c(NCC(P(=O)(O)O)P(=O)(O)O)nc2ncccc21 is ___
Solution: t

Problem: What did the test return for CC(C)n1cc(CC(P(=O)(O)O)P(=O)(O)O)c2ccccc21 ?
Solution: t

Problem: Recorded call for Cn1c(NCC(P(=O)(O)O)P(=O)(O)O)nc2cccnc21 ?
Solution: f

Problem: Outcome logged for Cc1[nH]c2ccccc2c1CC(P(=O)(O)O)P(=O)(O)O in this assay:
Solution: t

Problem: Record lookup: outcome of this test for CC(c1[nH]c2ccccc2c1CC(P(=O)(O)O)P(=O)(O)O)C1CCCC1 (stereo unspecified) ?
Solution: t

Problem: Could you check what this test reported for CC(C)C(C)c1[nH]c2ccccc2c1CC(P(=O)(O)O)P(=O)(O)O (stereo unspecified) ?
Solution: t

Problem: Could you please tell me the result logged for CC(C)C(C)c1[nH]c2ccc(-c3ccccc3)cc2c1CC(P(=O)(O)O)P(=O)(O)O (stereo unspecified) in this assay?
Solution: t

Problem: How was Cc1c(CC(P(=O)(O)O)P(=O)(O)O)c2ccccc2n1C classified in this test?
Solution: t

Problem: Which outcome was assigned to CCn1cc(CC(P(=O)(O)O)P(=O)(O)O)c2ccccc21 in this test?
Solution: t

Problem: For CC(C)(C)c1[nH]c2ccccc2c1CC(P(=O)(O)O)P(=O)(O)O , what call appears in the results of this test?
Solution: t
